Experiment: qHTS assay to identify small molecule antagonists of the progesterone receptor (PR) signaling pathway - cell viability counter screen (AID 1346798); also: nearly all actives have a fitted effect of over 50% in size
Conditions: PR-UAS-bla HEK293T viability, CellTiter-Glo luminescence, 16 h; series mostly up to 92.4 µM
Records with an inconclusive call do not appear. The source made the active and inactive calls. Calls follow the shape of the dose curve; as a rule, active = well fitted cell-killing curve with a large enough effect in the repeat runs; inconclusive = weak or mixed curves, or effect the other way; inactive = no such curve, though single readings can be large or run the other way.
Respond with a class label; see active, inactive

As a guide, the following entries are already answered.
compound	class_name
O=C(NCCO[N+](=O)[O-])c1cccnc1	inactive
CC/C=C\CCOC(=O)CC	inactive
O=C(Nc1ccc(S(=O)(=O)N2CCOCC2)cc1)c1cc(Cl)ccc1NS(=O)(=O)c1ccc(Cl)s1	inactive
C[C@@H]1C[C@H]2[C@@H]3CCC4=CC(=O)C=C[C@]4(C)[C@@]3(F)[C@@H](O)C[C@]2(C)[C@@]1(O)C(=O)COC(=O)c1ccncc1	inactive
NS(=O)(=O)c1ccc(N2CCCCS2(=O)=O)cc1	inactive
O=C1c2ccccc2S(=O)(=O)N1CCCCN1CCN(c2ncccn2)CC1	inactive
Cc1cccc(C)c1OCC(=O)N[C@@H](Cc1ccccc1)[C@@H](O)C[C@H](Cc1ccccc1)NC(=O)[C@H](C(C)C)N1CCCNC1=O	active
CCCC(=O)Nc1ccc(O)c(C(C)=O)c1	inactive
C[N+]1(C)CCC(OC(=O)C(O)(c2ccccc2)C2CCCC2)C1 (stereo not given)	inactive

Consider the additional compound presented here.
Status in this test for `CC(C)O.CC(C)O.CCOC(=O)/C=C(\C)O.CCOC(=O)/C=C(\C)O.[Ti]` ? inactive

---

Target: Aryl hydrocarbon receptor (Homo sapiens) (UniProt P35869)
Sequence (P35869 whole entry, looked up): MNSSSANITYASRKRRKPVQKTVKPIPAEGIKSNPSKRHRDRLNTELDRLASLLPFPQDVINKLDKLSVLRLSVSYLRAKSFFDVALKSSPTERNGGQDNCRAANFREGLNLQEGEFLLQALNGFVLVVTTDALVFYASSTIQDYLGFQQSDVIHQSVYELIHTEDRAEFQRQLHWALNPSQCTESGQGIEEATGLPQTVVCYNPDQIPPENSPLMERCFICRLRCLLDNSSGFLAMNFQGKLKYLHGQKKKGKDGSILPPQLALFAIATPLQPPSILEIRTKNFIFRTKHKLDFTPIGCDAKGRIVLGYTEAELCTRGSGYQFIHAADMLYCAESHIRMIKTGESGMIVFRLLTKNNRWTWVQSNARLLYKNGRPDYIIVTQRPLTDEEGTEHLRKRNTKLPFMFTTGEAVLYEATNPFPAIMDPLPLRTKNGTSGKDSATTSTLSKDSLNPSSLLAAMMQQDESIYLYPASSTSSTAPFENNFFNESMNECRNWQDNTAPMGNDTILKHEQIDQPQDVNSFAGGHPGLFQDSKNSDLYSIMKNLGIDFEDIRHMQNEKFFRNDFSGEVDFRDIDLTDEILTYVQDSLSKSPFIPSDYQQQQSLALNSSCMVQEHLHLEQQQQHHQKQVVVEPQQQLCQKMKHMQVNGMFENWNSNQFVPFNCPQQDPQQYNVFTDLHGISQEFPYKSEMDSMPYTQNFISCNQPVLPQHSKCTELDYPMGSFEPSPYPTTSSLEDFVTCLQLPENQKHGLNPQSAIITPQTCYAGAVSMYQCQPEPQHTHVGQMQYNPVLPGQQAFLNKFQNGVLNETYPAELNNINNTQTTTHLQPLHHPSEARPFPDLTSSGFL
Assay: qHTS assay to identify small molecule that activate the aryl hydrocarbon receptor (AhR) signaling pathway (AID 743085);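 also: HG2L7.5c1 human HepG2 liver cells with stably integrated DRE-driven firefly reporter; % is scaled to controls: 0 for no effect and ±100 for the full control effect; nearly all actives have a fitted effect of over 15% in size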
Details: HepG2 AhR-luc (HG2L7.5c1), luciferase, 24 h; series mostly up to 70.3 µM
Inconclusive results are not listed. The source made the active and inactive calls. Calls come from the whole dose curve; as a rule, active = well fitted activation curve with a large enough effect in the repeat runs; inconclusive = weak or mixed curves; inactive = no such curve, though single readings can be large or run the other way.
Would you mind answering with one of these outcomes? active, inactive

compound	class_name
CCCCC(CC)COC(=O)CCCCCCCCC(=O)OCC(CC)CCCC (configuration not stated)	inactive
CN1CCC(=C2c3ccccc3Sc3ccccc32)CC1	inactive
CC(=O)[O][Al]	inactive
Cc1ncc(CO)c(C=O)c1O	inactive
CC1OC(=O)C(C)OC1=O (configuration not stated)	inactive
S=C([S-])NCCNC(=S)[S-].[Mn+2]	inactive

How did this test come out for `NCC(=O)CCC(=O)O` ? inactive

Okay, and `O=C(NCCO[N+](=O)[O-])c1cccnc1` ? inactive

Also `CN(C)CCN(Cc1ccccc1)c1ccccn1` , if possible. inactive

What would you report for `CCCCC(=O)OCC(=O)[C@H]1[C@H](C)C[C@H]2[C@@H]3C[C@H](F)C4=CC(=O)C=C[C@]4(C)[C@@]3(F)[C@@H](O)C[C@@]21C` ? inactive

Okay, and `O=C(Cl)c1cc(C(=O)Cl)cc(C(=O)Cl)c1` ? inactive

Follow-up entry: `c1ccc(CNCCNCc2ccccc2)cc1` inactive

Okay, and `Nc1cccc([N+](=O)[O-])c1` ? inactive

Another compound to check: `CCCOC(C(=O)OC1CCN(C)CC1)(c1ccccc1)c1ccccc1` inactive

---

Would you mind telling me the reported Potency of each entry?
Target: Nuclear receptor subfamily 1 group I member 2 (Homo sapiens) (UniProt O75469)
Assay: Human pregnane X receptor (PXR) activation by small molecules, qHTS assay (AID 1346985); also: potency is read from the fitted curve at half-maximal effect; nearly all actives have a fitted effect of over 40% in size
Details: DPX-2 HepG2 CYP3A4-luciferase, 24 h; series mostly up to 38.3 µM
Results filed as inconclusive are left out. Active and inactive are the calls of the source. Calls follow the shape of the dose curve; as a rule, active = well fitted activation curve with a large enough effect in the repeat runs; inconclusive = weak or mixed curves; inactive = flat fitted curve, though single readings scatter.

These solved cases illustrate the format of a correct answer.
molecule	Potency
C[C@H]1C[C@H]2[C@@H]3CCC4=CC(=O)C=C[C@]4(C)[C@@]3(Cl)[C@@H](O)C[C@]2(C)[C@@]1(O)C(=O)CO	11.2 µM (active)
CCN(CC)CCOC(=O)C(c1ccccc1)C1CCCCC1 (centres undefined)	25.1 µM (active)

Now let's try a different one.
Lab note: need Potency with Nuclear receptor subfamily 1 group I member 2 (Homo sapiens) (UniProt O75469) for entry `Cc1cccc(C)c1OCC(=O)N[C@@H](Cc1ccccc1)[C@@H](O)C[C@H](Cc1ccccc1)NC(=O)[C@H](C(C)C)N1CCCNC1=O` , please look it up. 3.98 µM (active)

---

Molecular target: Voltage-gated inwardly rectifying potassium channel KCNH2 (Homo sapiens) (UniProt Q12809)
Sequence (Q12809 whole entry, looked up): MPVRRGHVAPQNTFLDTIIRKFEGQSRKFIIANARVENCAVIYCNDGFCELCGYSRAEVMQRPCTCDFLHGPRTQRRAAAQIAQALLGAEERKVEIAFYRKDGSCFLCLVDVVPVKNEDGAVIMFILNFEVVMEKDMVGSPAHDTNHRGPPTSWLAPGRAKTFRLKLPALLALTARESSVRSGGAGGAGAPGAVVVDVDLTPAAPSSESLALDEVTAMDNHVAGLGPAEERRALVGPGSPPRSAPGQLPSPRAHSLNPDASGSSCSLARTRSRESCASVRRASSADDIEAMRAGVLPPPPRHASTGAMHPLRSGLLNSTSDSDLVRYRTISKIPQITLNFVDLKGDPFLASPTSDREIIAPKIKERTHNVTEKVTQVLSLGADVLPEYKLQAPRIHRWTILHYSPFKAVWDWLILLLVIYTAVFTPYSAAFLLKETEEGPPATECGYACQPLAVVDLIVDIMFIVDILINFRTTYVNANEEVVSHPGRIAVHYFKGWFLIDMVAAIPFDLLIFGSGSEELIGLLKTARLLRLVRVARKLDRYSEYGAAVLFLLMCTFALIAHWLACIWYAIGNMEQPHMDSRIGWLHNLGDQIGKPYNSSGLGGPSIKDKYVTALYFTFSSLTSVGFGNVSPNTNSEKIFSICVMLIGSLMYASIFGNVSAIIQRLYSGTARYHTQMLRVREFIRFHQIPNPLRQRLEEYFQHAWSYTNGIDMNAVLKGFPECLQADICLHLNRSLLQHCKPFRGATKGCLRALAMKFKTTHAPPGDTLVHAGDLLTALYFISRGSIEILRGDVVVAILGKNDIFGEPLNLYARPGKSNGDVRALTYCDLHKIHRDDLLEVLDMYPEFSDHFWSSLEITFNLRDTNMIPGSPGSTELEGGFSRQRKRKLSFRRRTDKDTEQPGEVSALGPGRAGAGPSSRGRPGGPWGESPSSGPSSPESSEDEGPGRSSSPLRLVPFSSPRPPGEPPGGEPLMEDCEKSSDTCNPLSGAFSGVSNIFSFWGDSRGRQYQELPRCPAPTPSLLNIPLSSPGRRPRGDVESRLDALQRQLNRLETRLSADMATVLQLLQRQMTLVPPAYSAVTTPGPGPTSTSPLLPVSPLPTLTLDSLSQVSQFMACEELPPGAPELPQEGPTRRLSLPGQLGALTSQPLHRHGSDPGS
Assay: Human Ether-a-go-go-Related Gene (hERG) channel small molecule antagonists: fluorescence cell-based qHTS assay (AID 1671200); also: nearly all actives have a fitted effect of over 50% in size
Settings: hERG-U2OS cells, FluxOR thallium flux fluorescence; series mostly up to 76.8 µM
Inconclusive results are not listed. Activity calls are given as the source filed them. Calls follow the shape of the dose curve; as a rule, active = well fitted inhibition curve with a large enough effect in the repeat runs; inconclusive = weak or mixed curves; inactive = flat fitted curve, though single readings scatter.
Choose the fitting class; nothing outside active, inactive is accepted.

compound	class_name
COC(C)(C)CCO	inactive
COCC(C)OC(C)=O (configuration not stated)	inactive
O=C(O)c1nc(Cl)c(Cl)c(Cl)c1Cl	inactive

Would you mind telling me which call this test gave CCOC(=O)C(O)c1ccccc1 (configuration not stated) ? inactive

Let us now turn to `O=C(CS)Nc1ccccc1` inactive

# iterate: `CCOC(=O)C1=C[C@]2(CC)CCCN3CCc4c(n1c1ccccc41)[C@@H]32` active

Record: `Cc1ncc(CO)c(C=O)c1O` inactive

Another compound to look at: `C#CCN(C)CCCOc1ccc(Cl)cc1Cl` active

What do we get for `CNCCCCOc1ccccc1Cc1ccccc1` ? active

Would you mind doing `CCOC(=O)C(=O)CCc1ccccc1` as well? inactive

And the next one, CC1OC(=O)C(C)OC1=O (configuration not stated) ? inactive

Quick one: `CCCCc1nc2cccnc2n1Cc1ccc(-c2ccccc2-c2nnn[nH]2)cc1` inactive

Try this compound too: `O=S(=O)(Oc1ccc(Cl)cc1)c1ccccc1` inactive

---

I'd appreciate it if you could supply viability change, negative = cytotoxic values for the items below.
Assay: qHTS assay to identify small molecule agonists of the sonic hedgehog signaling (Shh) pathway - cell viability counter screen (AID 1259366); also: % is scaled to controls: 0 for no effect and ±100 for the full control effect; nearly all actives have a fitted effect of over 50% in size
Details: NIH/3T3 Gli1-Luc viability, CellTiter-Fluor, 24 h; series mostly up to 92.4 µM
Excerpt: National Center for Advancing Translational Sciences [NCATS] NIH Chemical Genomics Center [NCGC] U.S. Environmental Protection Agency [EPA] National Institutes of Environmental Health Sciences [NIEHS] National Toxicology Program [NTP] U.S. Food and Drug Administration [FDA] The sonic hedgehog (Shh) pathway is essential for normal embryonic development. Dysregulation of the Shh pathway can cause severe developmental defects in organs. […]
Records with an inconclusive call do not appear. Active and inactive are the calls of the source. Calls come from the whole dose curve; as a rule, active = well fitted cell-killing curve with a large enough effect in the repeat runs; inconclusive = weak or mixed curves, or effect the other way; inactive = flat fitted curve, though single readings scatter.

Some solved entries appear below for comparison.
compound	viability change, negative = cytotoxic
C/C=C/C(=O)CC	14.7% [at 19 µM] (inactive)
C/C(=C(\CCOP(=O)(O)O)SC(=O)c1ccccc1)N(C=O)Cc1cnc(C)nc1N	-1.58% [at 8.39 µM] (inactive)
O=C(O)CNCC(=O)O	1.7% [at 8.39 µM] (inactive)
NC(N)=NCCC[C@H](N)C(=O)O	-3.86% [at 8.39 µM] (inactive)
CC(CSC(=O)c1ccccc1)C(=O)N1C[C@@H](Sc2ccccc2)C[C@H]1C(=O)O (stereo partly specified)	-5.51% [at 19 µM] (inactive)

I have this compound here, `NCC(=O)O` , and I need its recorded viability change, negative = cytotoxic. -1.71% [at 19 µM] (inactive)

---

Experiment: qHTS assay to identify small molecule agonists of the progesterone receptor (PR) signaling pathway - cell viability counter screen (AID 1346799); also: nearly all actives have a fitted effect of over 45% in size
Settings: PR-UAS-bla HEK293T viability, CellTiter-Glo luminescence, 16 h; series mostly up to 92.4 µM
Results filed as inconclusive are left out. Activity calls are given as the source filed them. Calls come from the whole dose curve.
Thanks in advance; please answer with one of these: active, inactive

Check out these entries, answers already filled in.
compound	class_name
O=C(CS)Nc1ccccc1	inactive
C[C@@H](c1ncncc1F)C(O)(Cn1cncn1)c1ccc(F)cc1F (stereo partly drawn)	inactive
CCN(CC)CCNc1ccc(CNC=O)c2sc3ccc(OC)cc3c(=O)c12	active
COc1cc(Cl)c(OC)cc1N	inactive
CN(C)CCN(Cc1ccsc1)c1ccccn1	inactive

What did this assay record as the result for `CCCCOC(=O)CCCCCCCC(=O)OCCCC` ? inactive

Next: `O=C(O)c1ccc(-n2nc(-c3ccccc3O)nc2-c2ccccc2O)cc1` inactive

Another compound to look at: `CCN(CC)c1ccc(C(=C2C=CC(=[N+](CC)CC)C=C2)c2cc(S(=O)(=O)O)ccc2S(=O)(=O)[O-])cc1` inactive

What about this compound? `Clc1ccc(Cn2c(CN3CCCC3)nc3ccccc32)cc1` active

Now the same for `CCCCCCCCCCCC(=O)OC[C@@H](O)[C@H]1OC[C@H](OCCO)[C@H]1OCCO` inactive

And for `CC(=O)[O][Al][O]C(C)=O` ? inactive

Request: `CC1=CC[C@H](C(C)C)C=C1` inactive

What about this compound? `Cc1ccccc1S(=O)(=O)O` inactive

Same thing, different compound: `CCC(=O)O[C@]1(C(=O)CCl)[C@@H](C)C[C@H]2[C@@H]3CCC4=CC(=O)C=C[C@]4(C)[C@@]3(F)[C@@H](O)C[C@@]21C` inactive

One more compound: `CCOC(=O)C(F)(F)F` inactive
